Reference for the values: the supplement of paper PMC9433436

Target: E. coli RNase P holoenzyme (M1 P RNA + rnpA protein) (UniProt P0A7Y8)
Sequence: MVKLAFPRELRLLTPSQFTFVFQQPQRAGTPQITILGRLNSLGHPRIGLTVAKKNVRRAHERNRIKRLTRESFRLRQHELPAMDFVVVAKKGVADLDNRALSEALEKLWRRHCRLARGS
Experiment: relative kcat/Km (krel) vs genomic leader AAAGAU (relative (reference leader = 1)); higher = faster RNase P cleavage
Details: fraction of substrate reacted: ~13-16% (15.68% repeat 1, 13.17% repeat 2)
Whole data set: some 4,100 sequences, median “relative kcat/Km (krel) vs genomic leader AAAGAU” near 1.7, cut for the highest 2% near 6.5. The sample as a whole holds a higher share of the highest values than the screen did.
Note to self: values exactly at 2 are yes (1). So relative kcat/Km at or above 2 is yes (1), below is no (0).

> print(dat)
    ordered.residues  assigned.class
 1            ACCGCC         yes (1)
 2            AACAAG          no (0)
 3            GACCTC         yes (1)
 4            TGTTGC         yes (1)
 5            TCAGCC         yes (1)
 6            ATACGT          no (0)
 7            ATCGCT         yes (1)
 8            CACAAG          no (0)
 9            ACCAAA         yes (1)
10            CGATAT         yes (1)
11            TTCGCA         yes (1)
12            TTAGAT         yes (1)
13            GTTTGC         yes (1)
14            CACTTC         yes (1)
15            TGATTA         yes (1)
16            TATTGA         yes (1)
17            TTCGAT         yes (1)
18            GGCATT         yes (1)
19            TGTTGA         yes (1)
20            GCGGCA          no (0)
21            GACCAC         yes (1)
22            GGAGCC          no (0)
23            CGTCAC         yes (1)
24            TGTTAC         yes (1)
25            AGTTAA         yes (1)
26            GACAAC         yes (1)
27            GTCGCA         yes (1)
28            ATCGCC         yes (1)
29            CTCGAT         yes (1)
30            CTCTAA         yes (1)
31            TTCGTG          no (0)
32            GATAAA         yes (1)
33            TGGACC          no (0)
34            ATGGCA          no (0)
35            TGAACT          no (0)
36            CACAAC         yes (1)
37            TAACAG          no (0)
38            AACAAC         yes (1)
39            TTTTGA         yes (1)
40            TGTTCC         yes (1)
41            TGCTAT         yes (1)
42            TTCTAT         yes (1)
43            TGCGAA          no (0)
44            CTCGTA         yes (1)
45            CGCGCA         yes (1)
46            TGGAAA          no (0)
47            AGTTTT         yes (1)
48            AGTTCA         yes (1)
49            CCATAG          no (0)
50            TTCGTC         yes (1)
51            TGCATC          no (0)
52            TACATA         yes (1)
53            CGGACC          no (0)
54            TTCGCC         yes (1)
55            ACTTAC         yes (1)
56            TCCATC         yes (1)
57            ATCGCA         yes (1)
58            AGTTCT         yes (1)
59            TCCACT         yes (1)
60            TTGCGG          no (0)
61            TTCATT         yes (1)
62            CGCGAA         yes (1)
63            CTCGCC         yes (1)
64            GTCGCG          no (0)
65            CGCTAA         yes (1)
66            GACAGC         yes (1)
67            TTCGCG         yes (1)
68            TTCATA         yes (1)
69            CCACTT          no (0)
70            GTGCCC          no (0)
71            TGTGAA         yes (1)
72            GGCGAC         yes (1)
73            TACAAG         yes (1)
74            TACTTT         yes (1)
75            TTCATC         yes (1)
76            GACTCG          no (0)
77            GATTGA         yes (1)
78            TACTTA         yes (1)

----------
In this section we review reported relative kcat/Km values for a set of sequences.
Target: E. coli RNase P holoenzyme (M1 P RNA + rnpA protein) (UniProt P0A7Y8)
Sequence: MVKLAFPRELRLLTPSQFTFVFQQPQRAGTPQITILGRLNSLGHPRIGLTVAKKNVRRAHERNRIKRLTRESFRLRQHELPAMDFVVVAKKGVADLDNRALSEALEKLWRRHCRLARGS
Assay: relative kcat/Km (krel) vs genomic leader AAAGAU (relative (reference leader = 1)); higher = faster RNase P cleavage
Details: fraction of substrate reacted: ~26-29% (28.66% repeat 1, 26.4% repeat 2)
In all, about 4,100 sequences were measured (“relative kcat/Km (krel) vs genomic leader AAAGAU”: median about 1.7, highest 2% from about 6.5 on). Shown is part of a subset that was picked to be rich in the highest values.
test readout: relative kcat/Km

> print(dat)
    ordered.residues      test.readout  readout.number
 1            CTATAC  relative kcat/Km            5.86
 2            ATCAAT  relative kcat/Km            6.65
 3            TAGTAA  relative kcat/Km            6.72
 4            TTTTGG  relative kcat/Km           0.844
 5            GGATAC  relative kcat/Km            3.05
 6            CCTCCC  relative kcat/Km            1.57
 7            GGTTAT  relative kcat/Km            2.83
 8            CTCATC  relative kcat/Km             6.8
 9            CTCATA  relative kcat/Km            6.23
10            CAAAAA  relative kcat/Km            2.42
11            TATCAT  relative kcat/Km            7.37
12            TAAACA  relative kcat/Km            1.75
13            TTCATT  relative kcat/Km            9.68
14            TGTTAG  relative kcat/Km             4.6
15            AACGAA  relative kcat/Km            5.36
16            ATGTAC  relative kcat/Km            5.39
17            TTACAC  relative kcat/Km             6.4
18            CCAGCA  relative kcat/Km           0.927
19            TCTCGA  relative kcat/Km            4.89
20            CCATAG  relative kcat/Km            1.95
21            GCTTAT  relative kcat/Km            4.62
22            CGTTAC  relative kcat/Km            7.82
23            ATCATT  relative kcat/Km            6.49
24            TTAGAT  relative kcat/Km             2.8
25            GATCAC  relative kcat/Km            5.26
26            ACCAAA  relative kcat/Km            4.37
27            CGACAT  relative kcat/Km            4.82
28            GAGCAG  relative kcat/Km            1.27
29            GATCAT  relative kcat/Km            5.17
30            CCCCGA  relative kcat/Km            4.96
31            GTTTGC  relative kcat/Km            5.13
32            CTTTAT  relative kcat/Km            8.16
33            CGCAAT  relative kcat/Km            4.14
34            TAATCT  relative kcat/Km            4.22
35            CGCGGA  relative kcat/Km            1.41
36            GTATAC  relative kcat/Km            6.65
